molecular target: SMAD–SBE4 PDI (SMAD4–SMAD3–DNA complex) (Homo sapiens, UniProt P84022+Q13485); construct: expressed in transfected cells; host or cells: HEK293T (transient co-transfection, lysate used); test: Multiplexed TR-FRET assay, Tb–FAM PDI readout (cell lysate-based); assay type: binding; conditions: TR-FRET dose–response confirmation with re-ordered compounds; 5′-FAM-SBE4 dsDNA; read-out: IC50, decrease in the PDI signal
Sequence (Q13485 whole entry): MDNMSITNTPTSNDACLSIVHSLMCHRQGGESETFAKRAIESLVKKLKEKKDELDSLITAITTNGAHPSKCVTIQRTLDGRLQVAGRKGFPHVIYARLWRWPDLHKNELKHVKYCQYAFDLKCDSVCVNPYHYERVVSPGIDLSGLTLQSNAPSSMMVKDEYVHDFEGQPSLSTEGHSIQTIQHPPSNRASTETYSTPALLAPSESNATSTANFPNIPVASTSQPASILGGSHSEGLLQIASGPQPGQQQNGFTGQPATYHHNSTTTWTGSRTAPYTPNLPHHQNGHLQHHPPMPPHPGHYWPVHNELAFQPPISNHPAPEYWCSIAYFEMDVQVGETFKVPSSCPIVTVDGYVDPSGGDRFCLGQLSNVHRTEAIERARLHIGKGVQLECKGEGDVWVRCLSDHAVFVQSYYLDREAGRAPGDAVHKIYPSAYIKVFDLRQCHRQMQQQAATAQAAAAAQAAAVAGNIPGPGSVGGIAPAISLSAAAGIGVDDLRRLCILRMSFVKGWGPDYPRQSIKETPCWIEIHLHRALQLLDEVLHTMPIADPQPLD
Sequence (P84022 whole entry): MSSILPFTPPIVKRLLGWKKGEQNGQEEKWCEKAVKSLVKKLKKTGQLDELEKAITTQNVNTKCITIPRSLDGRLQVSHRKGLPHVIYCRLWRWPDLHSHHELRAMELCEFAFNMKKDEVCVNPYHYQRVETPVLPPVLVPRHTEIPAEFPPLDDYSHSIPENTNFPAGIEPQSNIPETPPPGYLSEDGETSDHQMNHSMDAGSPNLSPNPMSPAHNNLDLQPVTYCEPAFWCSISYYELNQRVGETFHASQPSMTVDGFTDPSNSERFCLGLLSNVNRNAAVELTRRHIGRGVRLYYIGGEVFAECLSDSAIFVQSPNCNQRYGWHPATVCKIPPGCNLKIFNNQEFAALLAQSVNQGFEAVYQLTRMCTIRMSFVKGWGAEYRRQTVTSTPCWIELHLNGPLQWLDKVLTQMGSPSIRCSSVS
readout: IC50 (µM)

# structure, observedMeasurement
rows = [
    ("CC(C)=CCC[C@]1(C)C=Cc2c(O)c3c(c(CC=C(C)C)c2O1)O[C@]12C(=C[C@@H]4C[C@H]1C(C)(C)O[C@@]2(C/C=C(/C)C(=O)O)C4=O)C3=O", 36),
]

====

biological target: SMAD4–SMAD3 PPI (Homo sapiens, UniProt P84022+Q13485); construct: expressed in transfected cells; host or cells: HEK293T (transient co-transfection, lysate used); assay: Multiplexed TR-FRET assay, Tb–D2 PPI readout (cell lysate-based); assay type: binding
Sequence (Q13485 whole entry): as the sequence (Q13485 whole entry) above
Sequence (P84022 whole entry): as the sequence (P84022 whole entry) above

# structure, IC50 (µM)
data = [
    ("CC(C)=CCC/C(C)=C/Cc1c(O)c(CC=C(C)C)c2c(c1O)C(=O)C1=C[C@@H]3C[C@H]4C(C)(C)O[C@@](C/C=C(/C)C(=O)O)(C3=O)[C@@]14O2", 6.4),
]

====

molecular target: SMAD–SBE4 PDI (SMAD4–SMAD3–DNA complex) (Homo sapiens, UniProt P84022+Q13485); construct: expressed in transfected cells; host or cells: HEK293T (transient co-transfection, lysate used); assay: Multiplexed TR-FRET assay, Tb–FAM PDI readout (cell lysate-based); assay type: binding

# structure, testedOn, IC50 (µM)
records = [
    ("CC(C)=CCC/C(C)=C/Cc1c(O)c(CC=C(C)C)c2c(c1O)C(=O)C1=C[C@@H]3C[C@H]4C(C)(C)O[C@@](C/C=C(/C)C(=O)O)(C3=O)[C@@]14O2", "SMAD–SBE4 PDI (SMAD4–SMAD3–DNA complex) (Homo sapiens, UniProt P84022+Q13485)", 27.6),
]

====

target: SMAD4–SMAD3 MH2 domain PPI (Homo sapiens, UniProt P84022+Q13485); construct: GST-SMAD4-MH2 and VF-SMAD3-MH2 (C and D); expressed in transfected cells; host or cells: HEK293T (lysate); test: GST pull-down assay, SMAD4–SMAD3 MH2 domains; type: binding; settings: GST-SMAD4-MH2 and VF-SMAD3-MH2 lysates; densitometry of western blots; read-out: IC50, inhibition of the PPI of SMAD4–SMAD3 MH2 domains
Sequence (Q13485 323-552): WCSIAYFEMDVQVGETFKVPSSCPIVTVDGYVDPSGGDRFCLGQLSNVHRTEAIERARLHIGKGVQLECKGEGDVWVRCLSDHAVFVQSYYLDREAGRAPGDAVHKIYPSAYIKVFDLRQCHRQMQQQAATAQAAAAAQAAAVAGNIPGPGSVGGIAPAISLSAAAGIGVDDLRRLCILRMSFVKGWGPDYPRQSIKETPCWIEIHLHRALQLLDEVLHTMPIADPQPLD
Sequence (P84022 232-425): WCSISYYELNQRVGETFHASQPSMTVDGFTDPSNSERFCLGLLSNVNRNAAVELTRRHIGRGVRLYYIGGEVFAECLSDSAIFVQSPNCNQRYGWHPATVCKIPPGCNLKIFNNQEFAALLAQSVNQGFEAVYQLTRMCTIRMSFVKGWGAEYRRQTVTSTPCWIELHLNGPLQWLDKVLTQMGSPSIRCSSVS

# structure, IC50
measured = [
    ("CC(C)=CCC[C@]1(C)C=Cc2c(O)c3c(c(CC=C(C)C)c2O1)O[C@]12C(=C[C@@H]4C[C@H]1C(C)(C)O[C@@]2(C/C=C(/C)C(=O)O)C4=O)C3=O", "~11.4 µM"),
]

====

target: SMAD4–SMAD3 MH2 domain PPI (Homo sapiens, UniProt P84022+Q13485); construct: GST-SMAD4-MH2 and VF-SMAD3-MH2 (C and D); expressed in transfected cells; host or cells: HEK293T (lysate); assay: GST pull-down assay, SMAD4–SMAD3 MH2 domains; format: binding
pIC50: −log10 of the molar value.

# compound, pIC50
measured = [
    ("CC(C)=CCC/C(C)=C/Cc1c(O)c(CC=C(C)C)c2c(c1O)C(=O)C1=C[C@@H]3C[C@H]4C(C)(C)O[C@@](C/C=C(/C)C(=O)O)(C3=O)[C@@]14O2 [GNA, gambogenic acid]", "~5.05"),
]
